From: PubChem BioAssay (NCATS)

Molecular target: M-phase phosphoprotein 8 (Homo sapiens) (UniProt Q99549)
Sequence (Q99549 whole entry, looked up): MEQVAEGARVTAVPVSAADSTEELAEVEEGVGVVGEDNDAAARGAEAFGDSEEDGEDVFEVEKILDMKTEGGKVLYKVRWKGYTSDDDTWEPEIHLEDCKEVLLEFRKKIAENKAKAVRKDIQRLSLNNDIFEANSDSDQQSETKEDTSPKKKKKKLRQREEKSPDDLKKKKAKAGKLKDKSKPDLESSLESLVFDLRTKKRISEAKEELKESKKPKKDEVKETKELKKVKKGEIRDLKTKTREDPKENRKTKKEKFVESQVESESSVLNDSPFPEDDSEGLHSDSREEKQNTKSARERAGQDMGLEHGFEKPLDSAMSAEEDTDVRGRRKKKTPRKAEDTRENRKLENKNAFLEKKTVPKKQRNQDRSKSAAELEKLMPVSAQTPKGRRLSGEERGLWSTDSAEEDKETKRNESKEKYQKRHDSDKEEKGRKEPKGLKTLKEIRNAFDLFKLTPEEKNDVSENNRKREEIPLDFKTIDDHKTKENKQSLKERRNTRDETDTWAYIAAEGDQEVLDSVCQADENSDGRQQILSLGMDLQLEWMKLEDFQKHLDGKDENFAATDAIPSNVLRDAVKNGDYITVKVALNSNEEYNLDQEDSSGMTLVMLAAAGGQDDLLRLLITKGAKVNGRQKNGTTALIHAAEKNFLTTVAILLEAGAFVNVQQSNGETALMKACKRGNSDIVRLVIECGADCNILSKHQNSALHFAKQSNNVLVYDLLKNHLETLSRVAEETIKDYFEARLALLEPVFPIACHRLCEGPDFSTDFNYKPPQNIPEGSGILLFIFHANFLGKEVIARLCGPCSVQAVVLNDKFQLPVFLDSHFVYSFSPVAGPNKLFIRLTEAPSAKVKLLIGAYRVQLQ
Assay: qHTS Validation Assay for Inhibitors for MPP8 Chromodomain Interactions with Methylated Histone Tails (AID 488949); also: nearly all actives have a fitted effect of over 55% in size; also: potency is read from the fitted curve at half-maximal effect
Conditions: AlphaScreen MPP8 binding to H3K9me3 peptide; series mostly up to 114 µM
Records with an inconclusive call do not appear. The source made the active and inactive calls. Calls follow the shape of the dose curve; as a rule, active = well fitted inhibition curve with a large enough effect; inconclusive = small, poorly fitted or top-dose-only effect; inactive = no such curve, though single readings can be large or run the other way.

COMPOUND | TESTED SYSTEM | Potency
CC(=O)SC1CC2=CC(=O)CC[C@]2(C)C2CC[C@@]3(C)[C@@H](CC[C@@]34CCC(=O)O4)C12 (stereo partly specified) | M-phase phosphoprotein 8 (Homo sapiens) (UniProt Q99549) | inactive
CCCCN1CCC(COC(=O)c2cc(Cl)c(N)c3c2OCCO3)CC1 | M-phase phosphoprotein 8 (Homo sapiens) (UniProt Q99549) | inactive
Cc1c(C)c2c(c(C)c1O)CCC(C)(CN1CCN(c3cc(N4CCCC4)nc(N4CCCC4)n3)CC1)O2 (stereo unspecified) | M-phase phosphoprotein 8 (Homo sapiens) (UniProt Q99549) | 11.2 µM (active)
CC(=O)O[C@]1(C(C)=O)CC[C@H]2C3C=C(Cl)C4=CC(=O)[C@@H]5C[C@H]5[C@]4(C)C3CC[C@@]21C (stereo partly specified) | M-phase phosphoprotein 8 (Homo sapiens) (UniProt Q99549) | inactive
CC[C@H](C)C(=O)O[C@H]1CCC=C2C=C[C@H](C)[C@H](CC[C@@H]3C[C@H](O)CC(=O)O3)C21 (stereo partly specified) | M-phase phosphoprotein 8 (Homo sapiens) (UniProt Q99549) | inactive
N#Cc1c(-c2ccccc2)no[n+]1[O-] | M-phase phosphoprotein 8 (Homo sapiens) (UniProt Q99549) | inactive
C[C@H]1c2cccc(O)c2C(O)=C2C(=O)[C@]3(O)C(O)=C(C(N)=O)C(=O)C(N(C)C)[C@@H]3[C@@H](O)C21 (stereo partly specified) | M-phase phosphoprotein 8 (Homo sapiens) (UniProt Q99549) | inactive
Nc1nc(Cl)nc2c1ncn2[C@@H]1O[C@H](COP(=O)(O)OP(=O)(O)OP(=O)(O)O)[C@H](O)[C@H]1O | M-phase phosphoprotein 8 (Homo sapiens) (UniProt Q99549) | inactive
O=S(=O)(O)C1CCNCC1 | M-phase phosphoprotein 8 (Homo sapiens) (UniProt Q99549) | inactive
Cc1cc(N)c2ccccc2[n+]1CCCCCCCCCCCCCC[n+]1c(C)cc(N)c2ccccc21 | M-phase phosphoprotein 8 (Homo sapiens) (UniProt Q99549) | 39.8 µM (active)
C[C@]12C[C@H](O)C3[C@@H](CCC4=CC(=O)CC[C@@]43C)[C@@H]1CC[C@@H]2C(=O)CO (stereo partly specified) | M-phase phosphoprotein 8 (Homo sapiens) (UniProt Q99549) | inactive

====

Test system: GB4
Assay: qHTS profiling for inhibitors of Plasmodium falciparum proliferation (AID 504749); also: nearly all actives have a fitted effect of over 60% in size; also: potency is read from the fitted curve at half-maximal effect
Settings: P. falciparum in erythrocytes, SYBR Green DNA, 72 h; series mostly up to 28.7 µM
Inconclusive results are not listed. Calls of active or inactive are those of the source. The call rests on the fitted dose curve; in most records, active means well fitted inhibition curve with a large enough effect; inconclusive means small, poorly fitted or top-dose-only effect; inactive means flat fitted curve, though single readings scatter.

COMPOUND | TESTED SYSTEM | Potency
C=C[C@]1(C)C[C@@H](OC(=O)CSCCN(CC)CC)[C@]2(C)C(C)CC[C@]3(CCC(=O)[C@H]32)[C@@H](C)[C@@H]1O (stereo partly drawn) | GB4 | 6.75 µM (active)
CCN1/C(=C/C=C/C=C/c2sc3ccccc3[n+]2CC)Sc2ccccc21 | GB4 | 7.57 µM (active)
O=NCc1ccc([N+](=O)[O-])o1 | GB4 | 13.5 µM (active)

====

Target: Rap guanine nucleotide exchange factor 3 (Homo sapiens) (UniProt O95398)
Sequence (O95398 whole entry, looked up): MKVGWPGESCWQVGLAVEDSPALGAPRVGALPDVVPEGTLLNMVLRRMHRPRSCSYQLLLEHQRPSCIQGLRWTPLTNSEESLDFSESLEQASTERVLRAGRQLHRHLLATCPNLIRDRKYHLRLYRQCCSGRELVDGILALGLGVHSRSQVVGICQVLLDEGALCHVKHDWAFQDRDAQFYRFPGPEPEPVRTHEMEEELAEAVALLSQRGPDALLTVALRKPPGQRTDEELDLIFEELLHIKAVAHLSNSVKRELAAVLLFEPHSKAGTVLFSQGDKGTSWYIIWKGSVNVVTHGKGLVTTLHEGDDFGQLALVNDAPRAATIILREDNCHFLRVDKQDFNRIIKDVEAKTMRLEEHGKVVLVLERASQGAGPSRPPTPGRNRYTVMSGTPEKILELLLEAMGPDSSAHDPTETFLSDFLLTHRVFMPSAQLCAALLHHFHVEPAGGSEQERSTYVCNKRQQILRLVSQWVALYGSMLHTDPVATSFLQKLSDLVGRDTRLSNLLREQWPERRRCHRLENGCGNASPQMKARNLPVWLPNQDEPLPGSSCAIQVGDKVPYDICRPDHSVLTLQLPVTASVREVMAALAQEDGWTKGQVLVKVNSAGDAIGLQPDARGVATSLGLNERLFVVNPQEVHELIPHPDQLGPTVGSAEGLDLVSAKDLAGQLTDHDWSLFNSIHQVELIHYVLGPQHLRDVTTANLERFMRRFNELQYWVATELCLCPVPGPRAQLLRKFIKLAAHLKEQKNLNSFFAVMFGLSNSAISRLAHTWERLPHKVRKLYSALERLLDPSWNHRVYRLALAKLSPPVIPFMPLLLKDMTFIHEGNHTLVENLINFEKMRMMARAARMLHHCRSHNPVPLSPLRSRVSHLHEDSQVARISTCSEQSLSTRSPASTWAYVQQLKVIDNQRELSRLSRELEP
Test: Counterscreen qHTS for agonist of cAMP-regulated guanine nucleotide exchange factor 3 (EPAC1) (AID 1645889); also: % of control where 0% means no effect; nearly all actives have a fitted effect of over 40% in size
Conditions: EPAC1 Rap1B-BODIPY-GDP exchange, fluorescence; series mostly up to 154 µM
Results filed as inconclusive are left out. Active and inactive are the calls of the source. The call rests on the fitted dose curve; in most records, active means well fitted activation curve with a large enough effect; inconclusive means small, poorly fitted or top-dose-only effect, or another doubt; inactive means no such curve, though single readings can be large or run the other way.
MEASURE: activation

MOLECULE | MEASURE | RESULT
Cc1ccc(C(=O)Cc2ccccc2)c(O)c1 | activation | 23.4% [at 30.8 µM] (inactive)
COc1ccccc1/C=C/C=c1\sc2nc(=O)c(Cc3ccccc3)nn2c1=O | activation | inactive
O=C(NN1C(=O)/C(=C\c2ccc(O)c([N+](=O)[O-])c2)SC1=S)c1ccccc1Cl | activation | 0.476% [at 30.8 µM] (inactive)
O=C(O)C/C(=C\c1cc(Cl)c2c(c1)OCO2)c1nc2ccccc2s1 | activation | -1.83% [at 30.8 µM] (inactive)
CC1(C(=O)NS(=O)(=O)c2ccc3c(c2)CCO3)CCN1C(=O)C1(c2ccc(Cl)cc2)CCC1 (stereo unspecified) | activation | 34% [at 30.8 µM] (inactive)
CCN(c1ccccc1)S(=O)(=O)c1ccc(C(=O)Nc2ccncc2)cc1 | activation | 15% [at 30.8 µM] (inactive)
Cc1cccc2c1NC(=O)C2(O)N1CCCC(C)C1 (stereo unspecified) | activation | inactive
COc1ccc(OC)c(NC(=O)CSc2nccn2-c2cc(C)cc(C)c2)c1 | activation | inactive
O=C(O)c1ccccc1NC(c1ccccc1)c1ccc(Cl)cc1 (stereo unspecified) | activation | inactive
Cc1ccc(C)n1-c1ccc(C(=O)/C=C/N(C)C)cc1 | activation | 0.307% [at 30.8 µM] (inactive)
N=C(N)c1ccc(N=Nc2c(O)ccc3c2[nH]c2ccccc23)cc1 | activation | 33.2% [at 30.8 µM] (inactive)

====

System: ECU
Assay: qHTS profiling for inhibitors of Plasmodium falciparum proliferation (AID 504749); also: nearly all actives have a fitted effect of over 60% in size
Conditions: P. falciparum in erythrocytes, SYBR Green DNA, 72 h; series mostly up to 28.7 µM
Records with an inconclusive call do not appear. Calls of active or inactive are those of the source. Calls come from the whole dose curve; as a rule, active = well fitted inhibition curve with a large enough effect; inconclusive = small, poorly fitted or top-dose-only effect; inactive = flat fitted curve, though single readings scatter.
Outcome codes: active, inactive

COMPOUND | ASSIGNED CATEGORY
C1OCOCO1 | inactive
C/C=C\c1ccc(OC)cc1 | inactive
C=C[C@]1(C)C[C@@H](OC(=O)CSCCN(CC)CC)[C@]2(C)C(C)CC[C@]3(CCC(=O)[C@H]32)[C@@H](C)[C@@H]1O (stereo partly drawn) | active
CC1(C)S[C@@H]2[C@H](NC(=O)COc3ccccc3)C(=O)N2[C@H]1C(=O)O | inactive
S=C1NC=NC2N=CNC12 (stereo not drawn) | inactive
CC(=O)OC1CC2CCC1(C)C2(C)C (stereo not drawn) | inactive
CN1CC[C@H](CN2c3ccccc3Sc3ccccc32)C1 | active
Cc1cc(CC(C)CC(C)(C)C)n(O)c(=O)c1 (stereo not drawn) | active

====

Assay: Cell Viability - LYMP2-012 (AID 982);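 also: cellular ATP by luciferase luminescence where a drop means cytotoxicity; cells exposed to compound for one day before reading; nearly all actives have a fitted effect of over 55% in size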
Settings: LYMP2-012 lymphoblastoid cell viability qHTS; series mostly up to 92.2 µM
Records with an inconclusive call do not appear. The source made the active and inactive calls. Calls follow the shape of the dose curve; as a rule, active = well fitted cell-killing curve with a large enough effect; inconclusive = small, poorly fitted or top-dose-only effect; inactive = flat fitted curve, though single readings scatter.
Outcome codes: yes (1) for active, no (0) for inactive

COMPOUND | ASSIGNED CATEGORY
CN(C)C=O | no (0)
c1ccc2scnc2c1 | no (0)
C=CC(=O)OCCOCCOCCOCCOC(=O)C=C | yes (1)
O=C(O)c1ccccc1C(c1ccc(O)cc1)c1ccc(O)cc1 | no (0)
OCCNCCO | no (0)
c1ccccc1 | no (0)
Clc1cc(Cl)c(Cl)cc1Cl | no (0)
COc1cc(/C=C/c2ccccc2)oc(=O)c1 | no (0)
Cc1ccc([N+](=O)[O-])c(C)c1 | no (0)
Nc1ccc(S(=O)(=O)O)cc1 | no (0)
CCCCCCCCCCCCCCC1CO1 (configuration not stated) | no (0)
COc1ccc(/C=C/c2cc(OC)cc(=O)o2)cc1 | no (0)

====

Target: Rap guanine nucleotide exchange factor 3 (Homo sapiens)
Experiment: Confirmatory qHTS for antagonist of cAMP-regulated guanine nucleotide exchange factor 3 (EPAC1) (AID 1645880); also: nearly all actives have a fitted effect of over 55% in size; also: potency is read from the fitted curve at half-maximal effect
Conditions: EPAC1 Rap1B-BODIPY-GDP exchange, fluorescence
Results filed as inconclusive are left out. Activity calls are given as the source filed them. Calls follow the shape of the dose curve; as a rule, active = well fitted inhibition curve with a large enough effect; inconclusive = small, poorly fitted or top-dose-only effect; inactive = no such curve, though single readings can be large or run the other way.
MEASURE: Potency

MOLECULE | TESTED SYSTEM | MEASURE | RESULT
O=S1(=O)NC(c2ccccc2)CC(CC2CCCCC2)O1 (stereo unspecified) | Rap guanine nucleotide exchange factor 3 (Homo sapiens) | Potency | inactive
Cc1ccc(Cc2c(-c3cccc(Cl)c3)nc3ccc(Br)cn23)cc1 | Rap guanine nucleotide exchange factor 3 (Homo sapiens) | Potency | 75.7 µM (active)
CC(=O)c1ccccc1NC(=O)COC(=O)CSCC(=O)Nc1cc(C)on1 | Rap guanine nucleotide exchange factor 3 (Homo sapiens) | Potency | inactive
CC1CN(C(=O)CCC(=O)NCc2ccc(F)cc2)c2ccccc2S1 (stereo unspecified) | Rap guanine nucleotide exchange factor 3 (Homo sapiens) | Potency | inactive
COC(C(=O)Nc1ccc(Br)cc1F)c1ccccc1 (stereo unspecified) | Rap guanine nucleotide exchange factor 3 (Homo sapiens) | Potency | inactive
COc1ccc(-n2c(SCC(=O)Nc3ccccc3OC)nc(O)cc2=O)cc1 | Rap guanine nucleotide exchange factor 3 (Homo sapiens) | Potency | inactive
